# Target Or Test System: T1, soluble human FcRn (shFcRn) (human, UniProt P55899 24-297; P61769 21-119, biotinylated with Sulfo-NHS-LC-Biotin in the ELISA; amine-coupled to a CM5 chip in SPR)
# T1 construct: also called biotinylated shFcRn
# T1 sequence (P55899 24-297 limits assumed, chain 1 of 2): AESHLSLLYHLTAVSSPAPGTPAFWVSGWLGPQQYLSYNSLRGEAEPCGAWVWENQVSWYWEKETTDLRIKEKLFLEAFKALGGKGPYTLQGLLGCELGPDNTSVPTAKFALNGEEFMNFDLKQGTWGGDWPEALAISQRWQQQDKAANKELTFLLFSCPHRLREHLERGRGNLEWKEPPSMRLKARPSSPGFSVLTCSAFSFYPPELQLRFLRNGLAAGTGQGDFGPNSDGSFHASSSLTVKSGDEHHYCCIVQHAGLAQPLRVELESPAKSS
# T1 sequence (P61769 21-119 limits assumed, chain 2 of 2): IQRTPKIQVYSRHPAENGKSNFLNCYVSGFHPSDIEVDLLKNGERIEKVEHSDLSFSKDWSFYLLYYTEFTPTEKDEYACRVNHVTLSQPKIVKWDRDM
# Experimental Protocol: competition ELISA vs human IgG
Non-standard residues stand in square brackets, D forms with d. No end group written: not given here.
Test Readout: pIC50
In plain terms, pIC50 is the concentration in mol/L turned into minus its base-10 logarithm.

Here's what some known entries look like.
QRFVTGHFG[dP]LYPINGP-NH2 (N-terminus assumed; SMILES CC[C@H](C)[C@H](NC(=O)[C@@H]1CCCN1C(=O)[C@H](Cc1ccc(O)cc1)NC(=O)[C@H](CC(C)C)NC(=O)[C@H]1CCCN1C(=O)CNC(=O)[C@H](Cc1ccccc1)NC(=O)[C@H](Cc1c[nH]cn1)NC(=O)CNC(=O)[C@@H](NC(=O)[C@@H](NC(=O)[C@H](Cc1ccccc1)NC(=O)[C@H](CCCNC(=N)N)NC(=O)[C@@H](N)CCC(N)=O)C(C)C)[C@@H](C)O)C(=O)N[C@@H](CC(N)=O)C(=O)NCC(=O)N1CCC[C@H]1C(N)=O) [Peptide No. 169]
4.14
QRFXTGHFGGXYPCNGP (Pen4; NMeLeu11; disulfide; C-terminal amide) [Peptide No. 113]
5.80

Now for the binder whose pIC50 we want.
(Q) In one line, give reported pIC50 of the entry QRFXTGHFGXLYPCNGP (Pen4; D-Pro10; disulfide; C-terminal amide) [Peptide No. 40] .
(A) 5.85
